Target: Anti-CD28 Fab (SEQ ID NOs: 696, 697)
Sequence (VH, as listed by the source, chain 1 of 2): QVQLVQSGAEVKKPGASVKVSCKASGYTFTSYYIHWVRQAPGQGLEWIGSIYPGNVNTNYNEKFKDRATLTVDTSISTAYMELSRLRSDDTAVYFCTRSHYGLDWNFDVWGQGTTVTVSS
Sequence (VL, as listed by the source, chain 2 of 2): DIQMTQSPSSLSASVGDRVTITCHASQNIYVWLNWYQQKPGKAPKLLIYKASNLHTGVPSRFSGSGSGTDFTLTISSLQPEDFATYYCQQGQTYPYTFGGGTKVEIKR
Assay: phage binding ELISA; biotinylated anti-CD28 Fab on neutravidin plate, clonal phage supernatant, anti-M13 HRP detection;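 also: wells pretreated with blocking buffer, either plus or minus CD28 antigen, then given crude phage supernatant briefly without washing in between, then washed before anti-M13 HRP readout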
Where no end group is shown, it is not given here.
value_type: Anti-CD28 Fab (SEQ ID NOs: 696, 697) signal
Enter the number alone.

[ask] Consider the binder LCSAGAMYPWPTCL [Phage-1369 peptide (Peptide-92 library sequence, SEQ ID NO: 1665)] and give its measured Anti-CD28 Fab (SEQ ID NOs: 696, 697) signal.
[reply] 2.25

[ask] Look up Anti-CD28 Fab (SEQ ID NOs: 696, 697) signal for this binder: TCSAGATYAWPFCL [Phage-1360 peptide (Peptide-92 library sequence, SEQ ID NO: 1656)]
[reply] 2.31

[ask] Value lookup for Anti-CD28 Fab (SEQ ID NOs: 696, 697) signal; key = MCAAGANYPWPQCL (cysteine pairing not given here; also: fused to phage pIII protein) [Phage-1367 peptide (Peptide-92 library sequence, SEQ ID NO: 1663)]
[reply] 2.28
